# system_under_test: panel of 203 kinases (Homo sapiens)
# Construct: purchased DiscoverX (KINOMEscan)
# assay_overview: KINOMEscan competitive binding, whole panel
# test_context: 10 µM, n=1; kinase MAP3K4; read-out: Percent inhibition MAP3K4
Below is a list of entries, each paired with its recorded inhibition at 10 µM value.
Could you give me the number in %? Just the number is fine.

> print(dat)
                                   compound         readout.kind  unit.text  quantitative.readout
1  C[C@@H](Oc1cc(-c2cnc3ccccn23)sc1C(N)=O)c1ccccc1Cl [Compound 8]  inhibition at 10 µM          %                     0
2  CN1CCN(c2ccc(Nc3nccc(-c4cnn5ncccc45)n3)cc2C#N)CC1 [Compound 1]  inhibition at 10 µM          %                    91

*Q* GET /values?readout=inhibition at 10 µM&item= Nc1ncc2c(-c3ccncc3)c[nH]c2n1 [Compound 11]
*A* 0

----------
# system_under_test: panel of 203 kinases (Homo sapiens, UniProt P53671)
# Construct: purchased DiscoverX (KINOMEscan)
# Sequence (P53671 whole entry): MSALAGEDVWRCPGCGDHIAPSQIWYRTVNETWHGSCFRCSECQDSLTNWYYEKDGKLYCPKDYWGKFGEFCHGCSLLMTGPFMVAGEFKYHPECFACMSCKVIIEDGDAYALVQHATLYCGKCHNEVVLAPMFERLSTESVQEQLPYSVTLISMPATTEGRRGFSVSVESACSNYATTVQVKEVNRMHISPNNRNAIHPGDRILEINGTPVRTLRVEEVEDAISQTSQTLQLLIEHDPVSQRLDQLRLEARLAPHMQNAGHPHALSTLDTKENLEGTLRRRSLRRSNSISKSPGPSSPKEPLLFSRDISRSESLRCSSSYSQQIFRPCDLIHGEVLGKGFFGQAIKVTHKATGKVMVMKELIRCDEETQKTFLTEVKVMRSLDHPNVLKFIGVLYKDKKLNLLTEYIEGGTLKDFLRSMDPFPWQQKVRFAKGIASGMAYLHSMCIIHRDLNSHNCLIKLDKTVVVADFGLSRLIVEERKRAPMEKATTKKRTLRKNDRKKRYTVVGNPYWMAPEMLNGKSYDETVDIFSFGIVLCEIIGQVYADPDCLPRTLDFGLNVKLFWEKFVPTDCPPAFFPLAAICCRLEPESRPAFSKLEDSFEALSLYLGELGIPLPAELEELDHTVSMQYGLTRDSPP
# assay_overview: KINOMEscan competitive binding, whole panel
# test_context: 10 µM, n=1; kinase LIMK2; read-out: Percent inhibition LIMK2
readout_kind: inhibition at 10 µM (%)
Could you give me the number in %? Just the number is fine.

Check out these entries, answers already filled in.
> print(dat)
                               smiles.input         readout.kind  quantitative.readout
1              Nc1ncc2c(-c3ccncc3)c[nH]c2n1  inhibition at 10 µM                     0
2  C[C@@H](Oc1cc(-c2cnc3ccccn23)sc1C(N)=O)c1ccccc1Cl  inhibition at 10 µM                     0
3  CN1CCN(c2ccc(Nc3nccc(-c4cnn5ncccc45)n3)cc2C#N)CC1  inhibition at 10 µM                   100
4           Clc1ccc(Nc2ncc(-c3ccccc3)s2)cc1  inhibition at 10 µM                     0

From here, focus on the item given below.
*Q* GET /values?readout=inhibition at 10 µM&item= Cc1ccc(O)cc1Nc1ccnc(Nc2cccc(C(N)=O)c2)n1
*A* 96.6

----------
# system_under_test: panel of 203 kinases (Homo sapiens, UniProt P49840)
# Construct: purchased DiscoverX (KINOMEscan)
# Sequence (P49840 whole entry): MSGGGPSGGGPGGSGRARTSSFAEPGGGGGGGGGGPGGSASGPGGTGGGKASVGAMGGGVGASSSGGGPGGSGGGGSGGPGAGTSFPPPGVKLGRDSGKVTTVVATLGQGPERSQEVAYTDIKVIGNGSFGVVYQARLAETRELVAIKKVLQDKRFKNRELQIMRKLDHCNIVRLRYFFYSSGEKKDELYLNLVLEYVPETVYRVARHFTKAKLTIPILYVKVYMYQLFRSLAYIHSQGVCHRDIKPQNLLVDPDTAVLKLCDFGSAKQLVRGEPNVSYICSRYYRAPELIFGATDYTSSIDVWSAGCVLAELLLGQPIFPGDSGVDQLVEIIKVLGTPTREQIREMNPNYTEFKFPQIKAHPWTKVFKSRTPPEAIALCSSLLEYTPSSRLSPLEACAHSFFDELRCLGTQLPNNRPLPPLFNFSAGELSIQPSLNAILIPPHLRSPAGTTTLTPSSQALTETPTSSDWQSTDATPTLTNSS
# assay_overview: KINOMEscan competitive binding, whole panel
# test_context: 10 µM, n=1; kinase GSK3A; read-out: Percent inhibition GSK3A
Below is a list of entries, each paired with its recorded inhibition at 10 µM value.
Could you give me the number in %? Just the number is fine.

Check out these entries, answers already filled in.
> print(dat)
                               smiles.input         readout.kind  unit.text  quantitative.readout
1  Fc1cccc(COc2ccc(Nc3ncnc4c3CN(CCN3CCOCC3)CC4)cc2Cl)c1  inhibition at 10 µM          %                     0
2     COc1ccc(Nc2nccc(-c3cnn4ncccc34)n2)cc1  inhibition at 10 µM          %                   100
3              Nc1ncc2c(-c3ccncc3)c[nH]c2n1  inhibition at 10 µM          %                     0
4  Cc1ccc(O)cc1Nc1ccnc(Nc2cccc(C(N)=O)c2)n1  inhibition at 10 µM          %                  69.7
5   c1ccc(COc2cccc(-c3ccnc4[nH]ccc34)c2)cc1  inhibition at 10 µM          %                     0

From here, focus on the item given below.
*Q* GET /values?readout=inhibition at 10 µM&item= CN1CCN(c2ccc(Nc3nccc(-c4cnn5ncccc45)n3)cc2C#N)CC1
*A* 100

----------
# system_under_test: PDPK1 (Homo sapiens, UniProt O15530)
# Construct: purchased DiscoverX (KINOMEscan)
# Sequence (O15530 whole entry): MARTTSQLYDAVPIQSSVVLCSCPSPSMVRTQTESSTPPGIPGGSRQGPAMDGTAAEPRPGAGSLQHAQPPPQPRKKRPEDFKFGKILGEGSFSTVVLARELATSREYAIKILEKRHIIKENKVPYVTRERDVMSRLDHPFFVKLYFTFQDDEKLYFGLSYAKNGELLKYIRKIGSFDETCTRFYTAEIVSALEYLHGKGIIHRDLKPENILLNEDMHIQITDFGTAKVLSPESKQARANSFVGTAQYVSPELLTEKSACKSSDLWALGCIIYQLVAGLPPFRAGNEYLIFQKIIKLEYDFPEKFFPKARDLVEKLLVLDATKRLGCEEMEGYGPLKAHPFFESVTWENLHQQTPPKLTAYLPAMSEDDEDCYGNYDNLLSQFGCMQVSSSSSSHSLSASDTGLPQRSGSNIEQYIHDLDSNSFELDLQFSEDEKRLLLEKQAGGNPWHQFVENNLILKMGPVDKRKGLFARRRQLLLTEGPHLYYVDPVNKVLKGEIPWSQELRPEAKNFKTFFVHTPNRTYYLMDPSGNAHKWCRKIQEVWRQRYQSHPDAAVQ
# assay_overview: KINOMEscan competitive binding
# test_context: n=1, read-out: Percent inhibition, PDPK1
readout_kind: inhibition at 10 µM (%)
Could you give me the number in %? Just the number is fine.

> print(dat)
                               smiles.input  quantitative.readout
1  Fc1cccc(COc2ccc(Nc3ncnc4c3CN(CCN3CCOCC3)CC4)cc2Cl)c1                     0
2  COc1cc(Nc2nccc(-c3sc(N)nc3-c3cccc(NC(=O)c4c(F)cccc4F)c3)n2)cc(OC)c1OC                  68.3
3  C[C@@H](Oc1cc(-c2cnc3ccccn23)sc1C(N)=O)c1ccccc1Cl                     0
4  CN1CCN(c2ccc(Nc3nccc(-c4cnn5ncccc45)n3)cc2C#N)CC1                     0
5  Cc1ccc(O)cc1N(C)c1ccnc(Nc2cccc(S(N)(=O)=O)c2)n1                     0

*Q* Param readout = inhibition at 10 µM; param system = PDPK1 (Homo sapiens, UniProt O15530); param query = COc1ccc(Nc2nccc(-c3cnn4ncccc34)n2)cc1 ; response: value
*A* 0

*Q* Param readout = inhibition at 10 µM; param system = PDPK1 (Homo sapiens, UniProt O15530); param query = Clc1ccc(Nc2ncc(-c3ccccc3)s2)cc1 ; response: value
*A* 0

----------
Below is a list of entries, each paired with its recorded inhibition at 10 µM value.
# system_under_test: CSNK1G1 (Homo sapiens, UniProt Q9HCP0)
# Construct: purchased DiscoverX (KINOMEscan)
# Sequence (Q9HCP0 whole entry): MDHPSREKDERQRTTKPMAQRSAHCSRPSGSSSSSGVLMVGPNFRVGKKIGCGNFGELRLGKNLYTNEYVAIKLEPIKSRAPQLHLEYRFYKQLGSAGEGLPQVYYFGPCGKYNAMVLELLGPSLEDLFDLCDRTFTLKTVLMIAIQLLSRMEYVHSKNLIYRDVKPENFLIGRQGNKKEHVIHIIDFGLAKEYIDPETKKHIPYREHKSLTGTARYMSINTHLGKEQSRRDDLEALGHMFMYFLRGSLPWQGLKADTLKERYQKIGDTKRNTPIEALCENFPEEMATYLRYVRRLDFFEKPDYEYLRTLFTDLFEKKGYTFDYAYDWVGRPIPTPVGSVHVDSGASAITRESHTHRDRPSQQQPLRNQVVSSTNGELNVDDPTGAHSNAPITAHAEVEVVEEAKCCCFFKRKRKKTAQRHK
# assay_overview: KINOMEscan competitive binding
# test_context: 10 µM, n=1; kinase CSNK1G1; read-out: Percent inhibition CSNK1G1
Could you give me the number in %? Just the number is fine.

Check out these entries, answers already filled in.
> print(dat)
                               smiles.input         readout.kind  quantitative.readout
1  Cc1ccc(O)cc1Nc1ccnc(Nc2cccc(C(N)=O)c2)n1  inhibition at 10 µM                  82.5
2  Cc1ccc(O)cc1N(C)c1ccnc(Nc2cccc(S(N)(=O)=O)c2)n1  inhibition at 10 µM                     0
3  COc1cc(Nc2nccc(-c3sc(N)nc3-c3cccc(NC(=O)c4c(F)cccc4F)c3)n2)cc(OC)c1OC  inhibition at 10 µM                     0
4  CN1CCN(c2ccc(Nc3nccc(-c4cnn5ncccc45)n3)cc2C#N)CC1  inhibition at 10 µM                   100
5     COc1ccc(Nc2nccc(-c3cnn4ncccc34)n2)cc1  inhibition at 10 µM                  75.9

*Q* GET /values?readout=inhibition at 10 µM&item= Nc1ncc2c(-c3ccncc3)c[nH]c2n1
*A* 99.3

*Q* GET /values?readout=inhibition at 10 µM&item= Clc1ccc(Nc2ncc(-c3ccccc3)s2)cc1
*A* 0

*Q* GET /values?readout=inhibition at 10 µM&item= c1ccc(COc2cccc(-c3ccnc4[nH]ccc34)c2)cc1
*A* 0

*Q* GET /values?readout=inhibition at 10 µM&item= C[C@@H](Oc1cc(-c2cnc3ccccn23)sc1C(N)=O)c1ccccc1Cl
*A* 0

*Q* GET /values?readout=inhibition at 10 µM&item= Fc1cccc(COc2ccc(Nc3ncnc4c3CN(CCN3CCOCC3)CC4)cc2Cl)c1
*A* 0

----------
# system_under_test: TESK1 (Homo sapiens, UniProt Q15569)
# Construct: purchased DiscoverX (KINOMEscan)
# Sequence (Q15569 whole entry): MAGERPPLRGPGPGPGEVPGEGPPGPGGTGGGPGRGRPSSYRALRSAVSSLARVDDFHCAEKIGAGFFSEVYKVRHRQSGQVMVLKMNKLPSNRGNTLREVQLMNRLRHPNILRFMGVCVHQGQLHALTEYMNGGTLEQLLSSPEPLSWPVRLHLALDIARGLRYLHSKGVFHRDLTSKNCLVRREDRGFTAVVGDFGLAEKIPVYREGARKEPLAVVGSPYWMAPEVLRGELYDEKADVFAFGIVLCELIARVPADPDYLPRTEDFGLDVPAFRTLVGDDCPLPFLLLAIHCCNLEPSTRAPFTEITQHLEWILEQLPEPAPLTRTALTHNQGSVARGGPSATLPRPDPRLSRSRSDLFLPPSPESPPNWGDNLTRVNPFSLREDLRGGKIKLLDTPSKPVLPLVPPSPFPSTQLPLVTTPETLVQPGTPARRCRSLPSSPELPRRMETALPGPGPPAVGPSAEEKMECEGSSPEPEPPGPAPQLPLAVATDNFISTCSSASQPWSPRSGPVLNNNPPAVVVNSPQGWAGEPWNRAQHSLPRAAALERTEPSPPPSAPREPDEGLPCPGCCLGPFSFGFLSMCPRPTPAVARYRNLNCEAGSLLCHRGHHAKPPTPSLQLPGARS
# assay_overview: KINOMEscan competitive binding
# test_context: n=1, read-out: Percent inhibition, TESK1
readout_kind: inhibition at 10 µM (%)
Could you give me the number in %? Just the number is fine.

Check out these entries, answers already filled in.
> print(dat)
                                   molecule         readout.kind  quantitative.readout
1  Cc1ccc(O)cc1Nc1ccnc(Nc2cccc(C(N)=O)c2)n1 [Compound 3]  inhibition at 10 µM                     0
2  Cc1ccc(O)cc1N(C)c1ccnc(Nc2cccc(S(N)(=O)=O)c2)n1 [Compound 4]  inhibition at 10 µM                  79.9
3  C[C@@H](Oc1cc(-c2cnc3ccccn23)sc1C(N)=O)c1ccccc1Cl [Compound 8]  inhibition at 10 µM                     0
4  COc1ccc(Nc2nccc(-c3cnn4ncccc34)n2)cc1 [Compound 2]  inhibition at 10 µM                     0
5  COc1cc(Nc2nccc(-c3sc(N)nc3-c3cccc(NC(=O)c4c(F)cccc4F)c3)n2)cc(OC)c1OC [Compound 7]  inhibition at 10 µM                   100
6  Fc1cccc(COc2ccc(Nc3ncnc4c3CN(CCN3CCOCC3)CC4)cc2Cl)c1 [Compound 6]  inhibition at 10 µM                     0

*Q* GET /values?readout=inhibition at 10 µM&item= Clc1ccc(Nc2ncc(-c3ccccc3)s2)cc1 [Compound 10]
*A* 0

*Q* GET /values?readout=inhibition at 10 µM&item= Nc1ncc2c(-c3ccncc3)c[nH]c2n1 [Compound 11]
*A* 0

*Q* GET /values?readout=inhibition at 10 µM&item= CN1CCN(c2ccc(Nc3nccc(-c4cnn5ncccc45)n3)cc2C#N)CC1 [Compound 1]
*A* 0

*Q* GET /values?readout=inhibition at 10 µM&item= c1ccc(COc2cccc(-c3ccnc4[nH]ccc34)c2)cc1 [Compound 9]
*A* 0
